Provenance of the data: ChEMBL document CHEMBL1201862

- target: Nucleotide-binding oligomerization domain-containing protein 1 (Homo sapiens, UniProt Q9Y239)
- Sequence (Q9Y239 whole entry): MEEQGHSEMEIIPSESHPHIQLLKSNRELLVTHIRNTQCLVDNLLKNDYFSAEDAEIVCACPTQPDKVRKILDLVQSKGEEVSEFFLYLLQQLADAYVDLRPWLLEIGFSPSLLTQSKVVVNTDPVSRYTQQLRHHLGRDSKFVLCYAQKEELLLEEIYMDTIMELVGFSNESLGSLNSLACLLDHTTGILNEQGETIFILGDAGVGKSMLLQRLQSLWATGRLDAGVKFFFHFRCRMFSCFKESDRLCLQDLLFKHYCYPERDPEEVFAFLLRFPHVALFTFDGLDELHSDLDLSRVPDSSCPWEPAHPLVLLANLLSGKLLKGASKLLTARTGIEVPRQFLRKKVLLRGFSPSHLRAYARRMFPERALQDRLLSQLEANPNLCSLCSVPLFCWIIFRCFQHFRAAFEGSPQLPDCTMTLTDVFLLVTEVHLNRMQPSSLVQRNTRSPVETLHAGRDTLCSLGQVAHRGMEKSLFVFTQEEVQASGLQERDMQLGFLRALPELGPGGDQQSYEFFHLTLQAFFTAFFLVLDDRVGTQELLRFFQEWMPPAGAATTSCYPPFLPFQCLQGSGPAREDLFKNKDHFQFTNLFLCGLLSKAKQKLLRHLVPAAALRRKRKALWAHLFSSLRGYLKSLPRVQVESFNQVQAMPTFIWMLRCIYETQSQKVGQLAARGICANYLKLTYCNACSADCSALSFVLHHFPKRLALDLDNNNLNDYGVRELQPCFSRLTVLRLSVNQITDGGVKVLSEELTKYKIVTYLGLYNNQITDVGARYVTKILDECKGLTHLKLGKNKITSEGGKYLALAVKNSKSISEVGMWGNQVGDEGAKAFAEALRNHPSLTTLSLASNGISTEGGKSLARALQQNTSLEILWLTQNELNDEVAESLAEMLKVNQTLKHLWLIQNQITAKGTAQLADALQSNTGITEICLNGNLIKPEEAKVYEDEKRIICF
- method-description: NOD1 signaling inhibitors, SAR follow-up, revised (AID 2333)
- Type: functional
The source made the active and inactive calls. No stated cut-off is given here; in the data, actives have a measured IC50 and inactives only a lower limit.
experimental-endpoint: IC50

Solved cases below.
1) Cc1nn(-c2ccccc2)c2nc(C(Cl)(Cl)Cl)[nH]c(=O)c12 | 4500 nM (active)
2) C=CCC1(CC=C)CCCN1C(=O)c1cc(COc2ccc(C)nc2)on1 | 2670 nM (active)
3) Cc1cc(C(=O)NC2CCCc3c2cnn3-c2ccc(C)c(C)c2)n(C)n1 (stereo not given) | 43.1 nM (active)
4) Cc1ccc(NC(=O)C2CCN(S(=O)(=O)c3ccc4c(c3)NC(=O)C(C)S4)CC2)cc1Cl (stereo not given) | 2870 nM (active)

(Q) Tell me IC50 reported for O=C(c1ccc(S(=O)(=O)c2cccc(Cl)c2)c([N+](=O)[O-])c1)N1CCN(c2ccccn2)CC1
(A) 1400 nM (active)
